B1: TPR t1 (parent)
chain: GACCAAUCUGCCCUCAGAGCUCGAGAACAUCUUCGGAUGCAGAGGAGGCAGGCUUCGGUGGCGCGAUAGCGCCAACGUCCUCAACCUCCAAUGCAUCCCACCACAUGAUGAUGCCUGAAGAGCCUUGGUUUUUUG

Variants of: B1
procedure_details: polymerase ribozyme fitness, log enrichment relative to wild type (log ratio); higher = more active; in vitro selection for triplet polymerase activity
Class key for polymerase ribozyme fitness (log ratio) values: interval 1 = under -4, interval 2 = from -4 up to -1, interval 3 = -1 and over

Reference set (5 entries):
G48C G135U
interval 2
C101G C124G
interval 3
G48A A75G G120A
interval 3
C4A A29U G48U G71U U109G
interval 1
G110C A118U
interval 1

Read the next record carefully.
Into which category would you place A27U G69U ? interval 2
